# experimental target: T1, Recombinant human B7-1/CD80 Fc chimera (Cat. 140-B1-100, R&D Systems) (human, UniProt P33681 35-242)
# T1 construct: extracellular domain; also called B7-1 antigen; Fc part of the bought chimera not given; not described
# T1 sequence (looked up): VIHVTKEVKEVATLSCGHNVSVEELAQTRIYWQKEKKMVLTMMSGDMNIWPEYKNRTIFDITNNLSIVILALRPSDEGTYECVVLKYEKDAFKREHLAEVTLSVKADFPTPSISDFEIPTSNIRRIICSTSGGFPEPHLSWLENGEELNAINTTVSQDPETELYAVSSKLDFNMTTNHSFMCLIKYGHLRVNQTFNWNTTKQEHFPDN
# measurement protocol: competitive ELISA; coated CD28 Fc, biotinylated B7-1/CD80 Fc (2 nM), construct titrated
reported metric: EC50 (nM)
Kindly answer with a numeric value in nM, unit omitted.

Item RAB012 (other, rDVD-Ig with LEA29Y on the light chain only and anti-NGF variable domains; also called RAB012H; RAB012L) VH: QVQLQESGPGLVKPSETLSLTCTVSGFSLIGYDLNWIRQPPGKGLEWIGIIWGDGTTDYNSAVKSRVTISKDTSKNQFSLKLSSVTAADTAVYYCARGGYWYATSYYFDYWGQGTLVTVSS VL: AMHVAQPAVVLASSRGIASFVCEYASPGKYTEVRVTVLRQADSQVTEVCAATYMMGNELTFLDDSICTGTSSGNQVNLTIQGLRAMDTGLYICKVELMYPPPYYEGIGNGTQIYVIDPEPCPDSDTVAAPDIQMTQSPSSLSASVGDRVTITCRASQSISNNLNWYQQKPGKAPKLLIYYTSRFHSGVPSRFSGSGSGTDFTFTISSLQPEDIATYYCQQEHTLPYTFGQGTKLEIKR has what recorded EC50?
2.5
